- TARGET DESC: wild type c-kit (Homo sapiens (Human), UniProt P10721)
- Sequence (P10721 26-976): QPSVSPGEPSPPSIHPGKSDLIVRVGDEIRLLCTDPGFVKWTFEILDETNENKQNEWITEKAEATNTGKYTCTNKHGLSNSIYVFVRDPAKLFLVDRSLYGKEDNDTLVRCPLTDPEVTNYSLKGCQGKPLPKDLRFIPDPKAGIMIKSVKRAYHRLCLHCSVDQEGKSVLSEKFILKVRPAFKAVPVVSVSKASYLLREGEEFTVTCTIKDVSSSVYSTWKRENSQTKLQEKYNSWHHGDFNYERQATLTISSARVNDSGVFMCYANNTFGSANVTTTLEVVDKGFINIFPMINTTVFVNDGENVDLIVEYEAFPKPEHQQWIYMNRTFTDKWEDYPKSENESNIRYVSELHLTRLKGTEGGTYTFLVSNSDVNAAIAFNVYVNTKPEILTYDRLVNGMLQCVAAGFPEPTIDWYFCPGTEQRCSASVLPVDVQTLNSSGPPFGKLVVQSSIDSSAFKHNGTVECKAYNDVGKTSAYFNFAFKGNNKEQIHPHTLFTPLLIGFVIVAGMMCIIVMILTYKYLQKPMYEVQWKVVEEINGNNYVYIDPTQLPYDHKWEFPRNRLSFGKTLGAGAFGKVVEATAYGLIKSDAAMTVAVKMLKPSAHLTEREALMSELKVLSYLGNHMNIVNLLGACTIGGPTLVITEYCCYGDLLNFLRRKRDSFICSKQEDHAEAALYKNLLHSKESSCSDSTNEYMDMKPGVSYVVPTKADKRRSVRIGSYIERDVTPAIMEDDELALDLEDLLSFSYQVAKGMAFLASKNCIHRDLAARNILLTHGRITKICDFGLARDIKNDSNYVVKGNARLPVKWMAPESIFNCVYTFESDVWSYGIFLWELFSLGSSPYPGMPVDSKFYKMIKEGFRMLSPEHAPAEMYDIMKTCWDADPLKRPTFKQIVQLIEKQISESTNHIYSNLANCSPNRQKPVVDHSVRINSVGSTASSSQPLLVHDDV
- PROCEDURE TEXT: MSD Phospho c-Kit (Tyr721) Assay Whole Cell Lysate Kit in SCF-stimulated M-07e cells (pKIT assay, marked *)
- Type: cell-based
- ASSAY CONTEXT: Meso Scale Discovery (MSD) assay (values marked *)
Parameter: pIC50. Scope: all listed entries.
In plain terms, pIC50 is the concentration in mol/L turned into minus its base-10 logarithm.

Cc1ccc(-c2nnn([C@H]3C[C@@H](C(F)(F)F)C3)n2)cc1NC(=O)c1cnn2ccccc12 [Example 23] = 8.59

Entry under review: Cc1ccc(-c2nnn(C[C@H]3CC3(F)F)n2)cc1NC(=O)c1cnn2ccccc12 (single isomer, unassigned) [Example 26] . Reported pIC50?
8.62

Entry under review: Cc1ccc(-c2nnn(C3CC4(CCC4)C3)n2)cc1NC(=O)c1cnn2ccccc12 [Example 4] . Reported pIC50?
8.59

Entry under review: Cc1ccc(-n2nnc(C3CC3)n2)cc1NC(=O)c1cnn2ccccc12 [Example 152] . Reported pIC50?
8.44
